This collection of values is drawn from patent US9187525B2.

Target: T1, natriuretic peptide receptor-B (human)
T1 chain: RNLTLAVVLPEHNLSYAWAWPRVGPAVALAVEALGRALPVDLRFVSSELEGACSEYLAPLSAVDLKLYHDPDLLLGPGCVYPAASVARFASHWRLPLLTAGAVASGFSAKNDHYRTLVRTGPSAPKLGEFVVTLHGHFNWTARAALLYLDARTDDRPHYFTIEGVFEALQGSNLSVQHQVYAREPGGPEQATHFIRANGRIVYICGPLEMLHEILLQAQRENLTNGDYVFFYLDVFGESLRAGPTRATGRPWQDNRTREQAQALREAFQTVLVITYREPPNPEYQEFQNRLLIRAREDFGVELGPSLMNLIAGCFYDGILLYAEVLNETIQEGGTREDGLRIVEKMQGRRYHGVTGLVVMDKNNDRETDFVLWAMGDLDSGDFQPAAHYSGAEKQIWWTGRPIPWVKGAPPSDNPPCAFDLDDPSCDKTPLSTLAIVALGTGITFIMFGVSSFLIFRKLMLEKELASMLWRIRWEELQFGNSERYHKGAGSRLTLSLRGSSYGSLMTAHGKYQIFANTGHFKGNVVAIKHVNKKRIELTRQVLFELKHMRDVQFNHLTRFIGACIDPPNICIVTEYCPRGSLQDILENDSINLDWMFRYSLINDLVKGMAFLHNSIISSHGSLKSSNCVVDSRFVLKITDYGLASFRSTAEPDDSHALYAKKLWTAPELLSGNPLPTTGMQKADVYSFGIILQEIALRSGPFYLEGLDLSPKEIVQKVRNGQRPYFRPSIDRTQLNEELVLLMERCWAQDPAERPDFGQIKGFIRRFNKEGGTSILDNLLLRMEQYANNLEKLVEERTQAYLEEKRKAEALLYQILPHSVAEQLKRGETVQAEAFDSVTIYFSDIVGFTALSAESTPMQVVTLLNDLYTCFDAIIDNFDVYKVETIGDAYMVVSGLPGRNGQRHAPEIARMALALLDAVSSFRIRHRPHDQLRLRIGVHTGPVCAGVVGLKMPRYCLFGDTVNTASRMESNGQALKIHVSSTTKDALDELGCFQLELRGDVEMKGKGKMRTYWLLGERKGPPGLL
Assay: cell-based or functional assay
Square brackets hold non-standard residues; d marks the D form. Ends that are not written are not given here. * marks the point of attachment. dPip = O=C(O)[C@H]1CCCCN1; Octanoyl = CCCCCCCC(=O)*; Occ = octanoic acid
Field: EC50 group, cGMP in GTM-3 cells. Provide a value for each of the binders that follow.

Study these solved cases before continuing.
Exercise: State the recorded EC50 group, cGMP in GTM-3 cells for this entry: XXFGLKLDRI (HELM PEPTIDE1{[CCCCCC(=O)[*:2]].[O=C1[C@@H](N[*:1])CCCCN1CC(=O)[*:2]].F.G.L.K.L.D.R.I.[am]}$$$$V2.0; SMILES CCCCCC(=O)N[C@H]1CCCCN(CC(=O)N[C@@H](Cc2ccccc2)C(=O)NCC(=O)N[C@@H](CC(C)C)C(=O)N[C@@H](CCCCN)C(=O)N[C@@H](CC(C)C)C(=O)N[C@@H](CC(=O)O)C(=O)N[C@@H](CCCNC(=N)N)C(=O)N[C@H](C(N)=O)[C@@H](C)CC)C1=O) [JAL-0656]
Solution: ≤ 15 µM

Exercise: Suppose we examine the binder Octanoyl-[dPip]FGLPLDRI-NH2 [JAL-1035] ; what EC50 group, cGMP in GTM-3 cells value has been reported?
Solution: ≤ 15 µM

Let us examine a further case.
Exercise: Dear colleague, I am looking for the recorded EC50 group, cGMP in GTM-3 cells of the following binder: [Occ]XFXLXXDRI-NH2 (not fully specified (residues 2, 4, 6, 7); printed as Occ-Sni-Phe-nml-Leu-Hyp-Nml-Asp-Arg-Ile-NH2) [JAL-1574]
Solution: ≤ 15 µM
